I'd appreciate it if you could supply % Inhibition values for the items below.
system: Plasmodium falciparum; test: Confirmatory screen in NF54 pLDH assay, in single point, at 2uM, 72h; format: functional, Erythrocyte; conditions: timepoint 72 hour
In all, about 4,800 compounds went through this assay and about 410 (8.5%) showed an effect of 50% or more. This is one part of a sample in which strong results are shown more often than they occur.
# number only, unit % dropped from output

# input I'd like to know its % Inhibition. The compound in question is Cc1nn(-c2nc3ccccc3[nH]2)c(O)c1Cc1ccccc1
# output 17

# input I'd like to know its % Inhibition. The compound in question is N[C@H]1C[C@@H](c2cc(N3CCN(C4CCCCC4)CC3)nc(N3CCCC3)n2)C1
# output 50

# input I'd like to know its % Inhibition. The compound in question is COc1cc2c(cc1-c1cccnc1)CCC(=O)N2C
# output -22

# input I'd like to know its % Inhibition. The compound in question is Cc1ccc(C(=O)N2C[C@@H]3C[C@H](NC(=O)c4cccnc4)[C@H]2C3)cc1F
# output -1

# input I'd like to know its % Inhibition. The compound in question is CC[C@H](O)CCNC(=O)Nc1ncc(CC(C)C)s1
# output 2

# input I'd like to know its % Inhibition. The compound in question is CCn1cc([C@H](CC(=O)N2CCN(Cc3ccc4c(c3)OCO4)CC2)c2cccc(OC)c2)c2ccccc21
# output 2

# input I'd like to know its % Inhibition. The compound in question is CC[C@H]1C[C@@H]1CNC(=O)c1cccc(NC(=O)c2ccco2)c1
# output -2

# input I'd like to know its % Inhibition. The compound in question is Cc1cc([C@H](Nc2ccccn2)c2ccccc2)c(NC(=O)c2ccccc2)s1
# output 3

# input I'd like to know its % Inhibition. The compound in question is Nc1nccnc1C(=O)Nc1c(-c2ccccc2)ncn1C1CC1
# output 3

# input I'd like to know its % Inhibition. The compound in question is COc1cccc(N2CCN(C(=O)c3cn4cc(-c5ccc(Cl)cc5)ccc4n3)CC2)c1
# output 2

# input I'd like to know its % Inhibition. The compound in question is CNCCc1c(-c2ccccc2)[nH]n(-c2ccccc2)c1=O
# output 69

# input I'd like to know its % Inhibition. The compound in question is Brc1ccc2c(c1)C1CCCCC1N2 (stereo not given)
# output 9

# input I'd like to know its % Inhibition. The compound in question is Cc1cc2[nH]ncc2cc1NC(=O)c1ccco1
# output 9

# input I'd like to know its % Inhibition. The compound in question is CNC(=O)[C@@H]1C[C@H](NCc2cc(OC)c(OC)c(OC)c2)CN1CC(c1ccccc1)c1ccccc1
# output 50

# input I'd like to know its % Inhibition. The compound in question is O=C1CCCc2nc3[nH]n(-c4ccccc4)c(=O)c3cc21
# output 13

# input I'd like to know its % Inhibition. The compound in question is Cc1ccccc1[C@H](CC(=O)O)NC(=O)C(F)(F)F
# output 16

# input I'd like to know its % Inhibition. The compound in question is Nc1nc(-c2ccccc2)c2cc3c(nn12)C[C@H](c1ccc(F)cc1)CC3=O
# output -6

# input I'd like to know its % Inhibition. The compound in question is COc1ccccc1N(CC(=O)NCCN1CCOCC1)S(=O)(=O)c1ccc(C)cc1
# output 7

# input I'd like to know its % Inhibition. The compound in question is COc1ccc(OCc2nc3cc4c(cc3cc2C(=O)O)OCO4)cc1
# output 5

# input I'd like to know its % Inhibition. The compound in question is CC(=O)N1CCCN(C(=O)c2ccccc2)CCNC(=O)[C@@H]2CCC[C@@H]21
# output 9

# input I'd like to know its % Inhibition. The compound in question is COc1ccccc1CNCCNC(=O)c1ccncc1
# output 9

# input I'd like to know its % Inhibition. The compound in question is Cc1ccc(CNc2ccc(S(C)(=O)=O)cc2)c(=O)n1C
# output -9

# input I'd like to know its % Inhibition. The compound in question is Clc1cccc(-c2c[nH]c([C@@H]3COCCN3C3CCOCC3)n2)c1
# output -16

# input I'd like to know its % Inhibition. The compound in question is C=CCOc1cc(C(=O)N2CCCCC2)cc2occc12
# output 11

# input I'd like to know its % Inhibition. The compound in question is Clc1ccc(-c2noc(CN(Cc3cccs3)Cc3cccs3)n2)cc1
# output 6

# input I'd like to know its % Inhibition. The compound in question is CC(C)OC[C@@H](O)CN1CC(C2CCC2)C1
# output -19

# input I'd like to know its % Inhibition. The compound in question is O=C(Nc1cccc2cccnc12)c1cncc(Br)c1
# output -8

# input I'd like to know its % Inhibition. The compound in question is Oc1cc(-c2ccc(F)cc2)nn1-c1nc2ccccc2[nH]1
# output -11

# input I'd like to know its % Inhibition. The compound in question is Cc1cnccc1NCCNCc1cccc(O)c1Cl
# output 101

# input I'd like to know its % Inhibition. The compound in question is Cc1cccc(NC(=O)CCC(=O)OCC(F)(F)C(F)F)c1C
# output 1

# input I'd like to know its % Inhibition. The compound in question is O=C([C@H]1CCCN(C(=O)N2CCc3sccc3C2)C1)N1CCc2[nH]ncc2C1
# output -7

# input I'd like to know its % Inhibition. The compound in question is COc1ccc(N2CCN(C(=O)c3ccc(F)cc3)[C@@H](C)C2=O)cc1
# output 11

# input I'd like to know its % Inhibition. The compound in question is COc1ccc(C(=O)n2[nH]c(=O)c(CCO)c2C)cc1
# output 5

# input I'd like to know its % Inhibition. The compound in question is Cc1nn(Cc2ccccc2)c(=O)n1-c1ccc(OCc2ccccc2)cc1
# output -14

# input I'd like to know its % Inhibition. The compound in question is Cc1cnc(NC(=O)c2ccc3ncoc3c2)c(Br)c1
# output 15

# input I'd like to know its % Inhibition. The compound in question is NS(=O)(=O)N1CCN(Cc2ccn(C3CCCC3)n2)CC1
# output 9

# input I'd like to know its % Inhibition. The compound in question is COc1ccc(C2C(C(=O)O)c3ccccc3C(=O)N2C2CCCCC2)cc1 (stereo not given)
# output -13

# input I'd like to know its % Inhibition. The compound in question is COc1cc(CNC2CCCCC2)cc(Br)c1OCc1ccccc1Cl
# output 8

# input I'd like to know its % Inhibition. The compound in question is Oc1ccc2ncccc2c1[C@@H](Nc1ccccn1)c1cccc(Br)c1
# output 77

# input I'd like to know its % Inhibition. The compound in question is CC(C)(C)N(CC(N)=O)CC(=O)NC(=O)NC1CCCCC1
# output 8

# input I'd like to know its % Inhibition. The compound in question is Clc1cc(CNCCc2ccccc2)ccc1OCc1ccccc1
# output 3

# input I'd like to know its % Inhibition. The compound in question is c1cn(C[C@@H]2CCCN2c2nc(C3CCCC3)ns2)nn1
# output -8

# input I'd like to know its % Inhibition. The compound in question is CS(=O)(=O)Nc1ccc(OC(=O)C2C3CCCCC32)cc1 (stereo not given)
# output 11

# input I'd like to know its % Inhibition. The compound in question is CCOc1cc(CNC2CCCCC2)cc(Cl)c1OCc1ccc(C)cc1
# output -4

# input I'd like to know its % Inhibition. The compound in question is Cc1cc(C)n(-c2nc(Nc3ccc(Cl)cc3)nc(Nc3ccc(Cl)cc3)n2)n1
# output 87

Ref: ChEMBL document CHEMBL4888484
